- System: Pectobacterium carotovorum
- ASSAY_DETAILS: Bactericidal activity against Erwinia carotovora
- Assay type: functional
The threshold is 2 µM. Values of MBC beneath it are tagged Fulfilled; values meeting or exceeding it are tagged Not fulfilled.

Req: # strict comparison: is reported MBC < 2 µM? input = CC1(C)S[C@@H]2[C@H](NC(=O)[C@H](N)c3ccccc3)C(=O)N2[C@H]1C(=O)O [AMPICILLIN]
Resp: Fulfilled

Req: # strict comparison: is reported MBC < 2 µM? input = CC(C)(C)c1cc(/C=C(/C(=O)c2ccc(Cl)cc2Cl)n2cncn2)cc(C(C)(C)C)c1O
Resp: Not fulfilled

Req: # strict comparison: is reported MBC < 2 µM? input = O=C(/C(=C/c1ccc([N+](=O)[O-])cc1)n1cncn1)c1ccc(Cl)cc1
Resp: Fulfilled

Req: # strict comparison: is reported MBC < 2 µM? input = O=C(/C(=C/c1cccc(O)c1)n1cncn1)c1ccccc1
Resp: Fulfilled

Req: # strict comparison: is reported MBC < 2 µM? input = CN(C)c1ccc(/C=C(/C(=O)c2ccc(-c3ccccc3)cc2)n2cncn2)cc1
Resp: Not fulfilled

====

Task for the reader: assign each of the following compounds its reported MBC.
- Tested on: Pseudomonas fluorescens
- ASSAY_DETAILS: Bactericidal activity against Pseudomonas fluorescens
- Assay type: functional
Quick reminder: number only, in µM, skip the unit.

Req: // MBC lookup, key: CC(C)CC(=O)/C(=C/c1ccc([N+](=O)[O-])cc1)n1cncn1
Resp: 3.3

Req: // MBC lookup, key: O=C(/C(=C/c1ccc([N+](=O)[O-])cc1)n1cncn1)c1ccc(Cl)cc1
Resp: 1.3

Req: // MBC lookup, key: O=C(N[C@H](CO)[C@H](O)c1ccc([N+](=O)[O-])cc1)C(Cl)Cl [CHLORAMPHENICOL]
Resp: 0.5

Req: // MBC lookup, key: CC(C)(C)c1cc(/C=C(/C(=O)c2ccc(Cl)cc2Cl)n2cncn2)cc(C(C)(C)C)c1O
Resp: 9

Req: // MBC lookup, key: O=C(/C(=C/c1cccc(O)c1)n1cncn1)c1ccccc1
Resp: 1.7

====

- System: Penicillium ochrochloron
- ASSAY_DETAILS: Antifungal activity Penicillium ochrochloron by microdilution method
- Format: functional
Task for the reader: assign each of the following compounds its reported MIC.
Quick reminder: number only, in µM, skip the unit.

Req: // MIC lookup, key: CC(C)(C)c1cc(/C=C(/C(=O)c2ccc(Cl)cc2Cl)n2cncn2)cc(C(C)(C)C)c1O
Resp: 80

Req: // MIC lookup, key: O=C(/C(=C/c1ccc([N+](=O)[O-])cc1)n1cncn1)c1ccc(Cl)cc1
Resp: 100

Req: // MIC lookup, key: O=C(/C(=C/c1cccc(O)c1)n1cncn1)c1ccccc1
Resp: 260

Req: // MIC lookup, key: CC(=O)N1CCN(c2ccc(OCC3COC(Cn4ccnc4)(c4ccc(Cl)cc4Cl)O3)cc2)CC1 (stereo not given)
Resp: 1880

Req: // MIC lookup, key: CN(C)c1ccc(/C=C(/C(=O)c2ccc3ccccc3c2)n2cncn2)cc1
Resp: 140

Req: // MIC lookup, key: O=C(/C(=C/c1ccccc1)n1cncn1)c1ccc(Cl)cc1Cl
Resp: 160

Req: // MIC lookup, key: O=C(/C(=C/c1cc([N+](=O)[O-])ccc1O)n1cncn1)c1ccc(Cl)cc1
Resp: 100

Req: // MIC lookup, key: CC(C)CC(=O)/C(=C/c1ccc([N+](=O)[O-])cc1)n1cncn1
Resp: 30

Req: // MIC lookup, key: c1ccc(-c2ccc(C(c3ccccc3)n3ccnc3)cc2)cc1 (stereo not given)
Resp: 640

Req: // MIC lookup, key: CN(C)c1ccc(/C=C(/C(=O)c2ccc(-c3ccccc3)cc2)n2cncn2)cc1
Resp: 130
